Test system: PXR homodimer (NR concentration 270 nM)
protocolSummary: PBM binding z-score (relative to random genomic background probes); higher = stronger binding; sequences stand for … in GC…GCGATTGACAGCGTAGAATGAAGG

>  <macromoleculeSequence>
CCTACTGGGACAAAGGTCATTGATTCCAATGCTC

>  <PBM binding z-score>
2.24

$$$$
>  <macromoleculeSequence>
TTACCAAGGTGAAATGTCGTTGATGCACGCCTTG

>  <PBM binding z-score>
-0.455

$$$$
>  <macromoleculeSequence>
TCTAGTTGGTCAAAGGTCACAGACTCGAAATGCG

>  <PBM binding z-score>
1.54

$$$$
>  <macromoleculeSequence>
TCTTGTAGTTCAGCAGGTTAAGAAAGCTGGCCAA

>  <PBM binding z-score>
0.352

$$$$
>  <macromoleculeSequence>
CAAACTAGGTCACGAAAGGACAAAGTCGAATGAC

>  <PBM binding z-score>
0.691

$$$$
>  <macromoleculeSequence>
AGTTAAAGTTCATCTAGGTAACGTAAGATATGCT

>  <PBM binding z-score>
6.53

$$$$
>  <macromoleculeSequence>
CGAACTAGGTCATCCAGGACGGTGAATACATTGA

>  <PBM binding z-score>
0.391

$$$$
>  <macromoleculeSequence>
CCGACTGGGGCAGAAAAGTTACCATACCATCCGG

>  <PBM binding z-score>
-0.395

$$$$

* * *

Test system: RXRa homodimer (NR concentration 180 nM)
protocolSummary: PBM binding z-score (relative to random genomic background probes); higher = stronger binding; sequences stand for … in GC…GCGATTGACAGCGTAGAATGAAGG

>  <macromoleculeSequence>
CCGACTGGAGCAAGGTTACCATAACGCACAGCCA

>  <PBM binding z-score>
0.971

$$$$
>  <macromoleculeSequence>
ATCGAAAGGTCCTGAGGTGAGTATACAGAAAGGC

>  <PBM binding z-score>
1

$$$$
>  <macromoleculeSequence>
TCATATAGGTAAGACAGGTGAAAGTCGGCATCTA

>  <PBM binding z-score>
1.02

$$$$

* * *

Tested on: VDR:RXRa (NR concentration 270 nM, RXRa partner concentration 90 nM)
protocolSummary: PBM binding z-score (relative to random genomic background probes); higher = stronger binding; sequences stand for … in GC…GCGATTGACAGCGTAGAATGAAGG
Lab note: compare PBM binding z-score against 0.9. Equal or greater, write label 1. Smaller, write label 0.

>  <macromoleculeSequence>
CAAACTAGGTCCCAGAGGTCAAAGTCCGTGCGTA

>  <assignedClass>
label 1

$$$$
>  <macromoleculeSequence>
CGAATTAGGTCAGAACAGGACAGTGAAGGATGAT

>  <assignedClass>
label 1

$$$$
>  <macromoleculeSequence>
TTTTGTAGATCAATAGAGGTTAAGAAAGTGCGCT

>  <assignedClass>
label 1

$$$$
>  <macromoleculeSequence>
CCGACTGGGGCAAAGGTTACCAAACTCAGTACGA

>  <assignedClass>
label 1

$$$$
>  <macromoleculeSequence>
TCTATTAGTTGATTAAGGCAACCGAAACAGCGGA

>  <assignedClass>
label 0

$$$$
>  <macromoleculeSequence>
CCTAGCAGGCCAATCTGAGTCACTCAAGGCTTGA

>  <assignedClass>
label 0

$$$$
>  <macromoleculeSequence>
CTCGAAAGGCCGTGCTCAGGTGAGTATACCAAAC

>  <assignedClass>
label 0

$$$$
>  <macromoleculeSequence>
TCTTGTAGATCAATAGAGGTTAACAAAGTGCGCT

>  <assignedClass>
label 1

$$$$
>  <macromoleculeSequence>
TCTAGTAGATCAAGCAGGTTAAGAAAGCCTGAGT

>  <assignedClass>
label 0

$$$$
>  <macromoleculeSequence>
AGTCAAAGTTCATCTCGGTAACGTAAGATATGCT

>  <assignedClass>
label 1

$$$$
>  <macromoleculeSequence>
TGAATGAGTTTATAAGATCAGGGAACGTTGCAAA

>  <assignedClass>
label 1

$$$$

* * *

Test system: RARb:RXRa (NR concentration 270 nM, RXRa partner concentration 90 nM)
protocolSummary: PBM binding z-score (relative to random genomic background probes); higher = stronger binding; sequences stand for … in GC…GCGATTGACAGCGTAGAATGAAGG
Lab note: compare PBM binding z-score against 2. Equal or greater, write true (1). Smaller, write false (0).

>  <macromoleculeSequence>
TTACCAAGGTGAAGGTCGCTGATCCCTCTGTAGA

>  <assignedClass>
true (1)

$$$$
>  <macromoleculeSequence>
TCTTCTAGGTCAACGATGGTCAGCTAATCTGCTA

>  <assignedClass>
true (1)

$$$$
>  <macromoleculeSequence>
TCTTGTAGATCACTAGAGGTTAAGAAAGTGCGCT

>  <assignedClass>
false (0)

$$$$
>  <macromoleculeSequence>
ACTATTAGTGGAGACGAGGGCAACCGATAGGTTG

>  <assignedClass>
false (0)

$$$$
>  <macromoleculeSequence>
TCGAGTGGGTTAGGGGCATTCAGAATGGCGTCGA

>  <assignedClass>
false (0)

$$$$
>  <macromoleculeSequence>
ATTTCTAGGTAAAAGTTCAGTGAATCCCGAGGAT

>  <assignedClass>
true (1)

$$$$
>  <macromoleculeSequence>
TCTTGTAGATCAAAGGTTAAGAGAGCCGAAGCCT

>  <assignedClass>
false (0)

$$$$
>  <macromoleculeSequence>
GCTTACGGGTCAAAGGTTATAGGATGAATAGAAT

>  <assignedClass>
true (1)

$$$$
>  <macromoleculeSequence>
GATACAGGGTCAGCAAGAGGCCAGAGTATGGAAA

>  <assignedClass>
true (1)

$$$$
>  <macromoleculeSequence>
TCTAGTTGCTCACGGAGGTCACACACGACGGGTA

>  <assignedClass>
true (1)

$$$$
>  <macromoleculeSequence>
CCAGACAGGTGAGAGGGTAACTCAGCCTCGATTA

>  <assignedClass>
false (0)

$$$$
>  <macromoleculeSequence>
TTACCAAGGTGAAGGACGTTGATCCCTCTGTAGA

>  <assignedClass>
false (0)

$$$$
>  <macromoleculeSequence>
TAGCCTAGGTCATTGGGCCAGTAGAGTACGCATC

>  <assignedClass>
true (1)

$$$$
>  <macromoleculeSequence>
ACAGACCGGTGAGTGAAGGTAACTCAGCTGGACG

>  <assignedClass>
false (0)

$$$$
>  <macromoleculeSequence>
CCTACTGGGGCAAGGTCATTGATCAGTCAAAGCA

>  <assignedClass>
true (1)

$$$$

* * *

System: PPARg:RXRa (NR concentration 180 nM, RXRa partner concentration 90 nM)
protocolSummary: PBM binding z-score (relative to random genomic background probes); higher = stronger binding; sequences stand for … in GC…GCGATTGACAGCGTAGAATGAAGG

>  <macromoleculeSequence>
TCGTATAGGTAAACAGGTGAAAGTCCGTAAGTTA

>  <testSystem>
PPARg:RXRa (NR concentration 180 nM, RXRa partner concentration 90 nM)

>  <PBM binding z-score>
1.46

$$$$
>  <macromoleculeSequence>
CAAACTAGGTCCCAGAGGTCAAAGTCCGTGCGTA

>  <testSystem>
PPARg:RXRa (NR concentration 180 nM, RXRa partner concentration 90 nM)

>  <PBM binding z-score>
4.51

$$$$
>  <macromoleculeSequence>
CAGACTGGGGCAGAAAGGTTACCATACCATCCGG

>  <testSystem>
PPARg:RXRa (NR concentration 180 nM, RXRa partner concentration 90 nM)

>  <PBM binding z-score>
2.23

$$$$
>  <macromoleculeSequence>
TTTGCTAGGTCAACGATGGTCAGCTAATCTGCTA

>  <testSystem>
PPARg:RXRa (NR concentration 180 nM, RXRa partner concentration 90 nM)

>  <PBM binding z-score>
3.4

$$$$
>  <macromoleculeSequence>
TCTCGGAGGACACGAAAGGTAAGAGCTCGACATC

>  <testSystem>
PPARg:RXRa (NR concentration 180 nM, RXRa partner concentration 90 nM)

>  <PBM binding z-score>
0.278

$$$$
>  <macromoleculeSequence>
CCTTACGGGTCACGAGGTTATAGCACGACGAGCG

>  <testSystem>
PPARg:RXRa (NR concentration 180 nM, RXRa partner concentration 90 nM)

>  <PBM binding z-score>
7.45

$$$$
>  <macromoleculeSequence>
AGAATGAGGTTAAGATCAGGGTAACAGAATACAT

>  <testSystem>
PPARg:RXRa (NR concentration 180 nM, RXRa partner concentration 90 nM)

>  <PBM binding z-score>
2.64

$$$$
>  <macromoleculeSequence>
CGTCCAAGGTCAGAGAGGGCAGTGAATGCCGAGT

>  <testSystem>
PPARg:RXRa (NR concentration 180 nM, RXRa partner concentration 90 nM)

>  <PBM binding z-score>
2.13

$$$$
>  <macromoleculeSequence>
TATACAGGGTCAAAGGCCAGAGTACGAATGTCGA

>  <testSystem>
PPARg:RXRa (NR concentration 180 nM, RXRa partner concentration 90 nM)

>  <PBM binding z-score>
8.48

$$$$
>  <macromoleculeSequence>
ATAAGTAGGTTAAGGGTCATTCAGGTTGGTTCGC

>  <testSystem>
PPARg:RXRa (NR concentration 180 nM, RXRa partner concentration 90 nM)

>  <PBM binding z-score>
12

$$$$
>  <macromoleculeSequence>
TAGCCCAGGTCATGCGGGCCAGTATAGTGTCGGC

>  <testSystem>
PPARg:RXRa (NR concentration 180 nM, RXRa partner concentration 90 nM)

>  <PBM binding z-score>
2.55

$$$$
>  <macromoleculeSequence>
TCTCGGAGGAGACGAAGGTCAGAGCTTTCCAGAG

>  <testSystem>
PPARg:RXRa (NR concentration 180 nM, RXRa partner concentration 90 nM)

>  <PBM binding z-score>
-0.069

$$$$
>  <macromoleculeSequence>
GATACAGTGTCAGCTAGAGGCCAGAGTATGGAAA

>  <testSystem>
PPARg:RXRa (NR concentration 180 nM, RXRa partner concentration 90 nM)

>  <PBM binding z-score>
0.158

$$$$
>  <macromoleculeSequence>
GCGACTGGGGCAAAGCAGGTTACCTTAAGGTTGG

>  <testSystem>
PPARg:RXRa (NR concentration 180 nM, RXRa partner concentration 90 nM)

>  <PBM binding z-score>
0.947

$$$$
>  <macromoleculeSequence>
CGACCTAGGTCAAGGACAGTGAATCTCCGCACGC

>  <testSystem>
PPARg:RXRa (NR concentration 180 nM, RXRa partner concentration 90 nM)

>  <PBM binding z-score>
3.55

$$$$
>  <macromoleculeSequence>
CCTAGTAGGCCAATCTGGGTCACTCAAGGCTTGA

>  <testSystem>
PPARg:RXRa (NR concentration 180 nM, RXRa partner concentration 90 nM)

>  <PBM binding z-score>
3.41

$$$$
>  <macromoleculeSequence>
TCTAGTTGGTCACGGAGGTAACACACGACGGGTA

>  <testSystem>
PPARg:RXRa (NR concentration 180 nM, RXRa partner concentration 90 nM)

>  <PBM binding z-score>
1.34

$$$$
>  <macromoleculeSequence>
CTCGAAAGGTCGGTTGAGGTGAGTATTCGGATAA

>  <testSystem>
PPARg:RXRa (NR concentration 180 nM, RXRa partner concentration 90 nM)

>  <PBM binding z-score>
-0.124

$$$$
>  <macromoleculeSequence>
CGTCCAAGGTCAATGGTAGGTCAGTGAAAGCATT

>  <testSystem>
PPARg:RXRa (NR concentration 180 nM, RXRa partner concentration 90 nM)

>  <PBM binding z-score>
3.76

$$$$
>  <macromoleculeSequence>
TGAATGAGCTTATAAGATCAGGGAACGTTGCAAA

>  <testSystem>
PPARg:RXRa (NR concentration 180 nM, RXRa partner concentration 90 nM)

>  <PBM binding z-score>
-0.117

$$$$
>  <macromoleculeSequence>
CCTACTGGGCCATTCAGAGGTCATTCATCATATG

>  <testSystem>
PPARg:RXRa (NR concentration 180 nM, RXRa partner concentration 90 nM)

>  <PBM binding z-score>
2.08

$$$$
>  <macromoleculeSequence>
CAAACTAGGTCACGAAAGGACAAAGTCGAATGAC

>  <testSystem>
PPARg:RXRa (NR concentration 180 nM, RXRa partner concentration 90 nM)

>  <PBM binding z-score>
9.21

$$$$
>  <macromoleculeSequence>
TCTTGTAGATCAAGAAGGTTAAGAAAGCCTGAGT

>  <testSystem>
PPARg:RXRa (NR concentration 180 nM, RXRa partner concentration 90 nM)

>  <PBM binding z-score>
-0.11

$$$$
